Give measured viability for each item. Keep answers brief.
Experiment: drug combination growth inhibition, ovarian cancer – cell-based, oncology-focused library, rucaparib conditional, profiling panel (AID 1508598)
Settings: patient-derived ovarian cancer cells, CellTiter-Glo viability, 144 h; at 0.313 µM; OCI-C5x cells; with rucaparib 10 µM; stronger effect = lower value; 100% = cells with rucaparib alone
Calls of active or inactive are those of the source.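 How the source made its calls: active means normalized viability below 100% at a tested concentration; inactive means the rest.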

Which measured viability value corresponds to N[C@@H]1CCCN(c2c(/C=C3\SC(=O)NC3=O)cccc2-c2ccccc2)C1 ? 105% (inactive)

Which measured viability value corresponds to CCc1c2c(nc3ccc(OC(=O)N4CCC(N5CCCCC5)CC4)cc13)-c1cc3c(c(=O)n1C2)COC(=O)[C@@]3(O)CC ? 83.7% (active)

Which measured viability value corresponds to CC(C)NCCCn1c(Sc2cc3c(cc2I)OCO3)nc2c(N)ncnc21 ? 143% (inactive)

Which measured viability value corresponds to CO[C@H]1C[C@@H]2CC[C@@H](C)[C@@](O)(O2)C(=O)C(=O)N2CCCC[C@H]2C(=O)O[C@H]([C@@H](C)C[C@@H]2CC[C@@H](OCCO)[C@H](OC)C2)CC(=O)[C@H](C)/C=C(\C)[C@H](O)[C@@H](OC)C(=O)[C@H](C)C[C@H](C)/C=C/C=C/C=C/1C ? 110% (inactive)

Which measured viability value corresponds to C[C@]12CC[C@H]3c4ccc(O)cc4CC[C@H]3[C@@H]1CCC2=O ? 81.6% (active)

Which measured viability value corresponds to Cc1cc2c(C(=O)NC[C@H](C)c3ccccc3)c(O)c(O)cc2c(O)c1-c1c(C)cc2c(C(=O)NC[C@H](C)c3ccccc3)c(O)c(O)cc2c1O ? 119% (inactive)

Which measured viability value corresponds to CC(=O)O[C@@]1(C(C)=O)CC[C@H]2[C@@H]3C=C(C)C4=CC(=O)CC[C@]4(C)[C@@H]3CC[C@@]21C ? 116% (inactive)

Which measured viability value corresponds to CC1=C(/C=C/C(C)=C\C=C\C(C)=C/C(=O)O)C(C)(C)CCC1 ? 108% (inactive)

Which measured viability value corresponds to CCC1=CC2CN(C1)Cc1c([nH]c3ccccc13)[C@@](C(=O)OC)(c1cc3c(cc1OC)N(C)[C@H]1[C@@](O)(C(=O)OC)[C@H](OC(C)=O)[C@]4(CC)C=CCN5CC[C@@]31[C@H]54)C2 (some centres not stated) ? 33.8% (active)

Which measured viability value corresponds to CC(C)(C(=O)NCC(F)(F)C(F)(F)F)C(=O)N[C@H]1C(=O)Nc2ccccc2-c2ccccc21 ? 116% (inactive)

Which measured viability value corresponds to C[C@]12CCC(=O)C=C1CC[C@@H]1[C@H]2[C@H](O)C[C@@]2(C)[C@H]1CC[C@@]2(O)C(=O)CO ? 103% (inactive)

Which measured viability value corresponds to CC(=O)O[C@]12CO[C@@H]1C[C@H](O)[C@]1(C)C(=O)[C@H](O)C3=C(C)[C@H](OC(=O)[C@H](O)[C@@H](NC(=O)OC(C)(C)C)c4ccccc4)C[C@](O)([C@H](OC(=O)c4ccccc4)C21)C3(C)C (some centres not stated) ? 41.5% (active)

---

Assay: viability loss with induced miR-34 in A549 – imaging, A549 dox-inducible miR-34, nuclei and caspase counts, primary screen (AID 1347080)
Conditions: A549 miR-34 inducible, Hoechst nuclei count, 48 h; measured here: relative caspase fold change +Dox/-Dox
# if measured fold change < 1: label 1  # else: label 0

Is fold change of OB(O)c1cc2ccccc2s1 strictly below 1? label 1

Is fold change of CC(=O)[C@@]1(O)CCC2C3CC(C)C4=CC(=O)CC[C@]4(C)C3CC[C@@]21C (stereo partly specified) strictly below 1? label 1

Is fold change of COC1OC2O[C@@]3(C)CCC4C(C)CCC(C1C)[C@@]24OO3 (stereo partly specified) strictly below 1? label 1

Is fold change of NS(=O)(=O)c1ccc(C(=O)NCCn2cccn2)cc1 strictly below 1? label 0

Is fold change of COc1cc(CC2COC(=O)C2Cc2ccc(O)c(OC)c2)ccc1O (stereo unspecified) strictly below 1? label 1

Is fold change of O=C(c1cn(Cc2cncn2Cc2ccc(Br)cc2)cc1-c1cccc2ccccc12)N1CCOCC1 strictly below 1? label 1

Is fold change of CC(=O)N[C@@H](Cc1c[nH]c2ccccc12)C(=O)OCc1cc(C(F)(F)F)cc(C(F)(F)F)c1 strictly below 1? label 0

Is fold change of CCOC(=O)NCCCC(=O)NCCc1ccccc1 strictly below 1? label 1

Is fold change of Nc1ncccc1OCc1ccccc1 strictly below 1? label 1

Is fold change of O=C1NC(=O)C(=Cc2ccc3c(c2)OC(F)(F)O3)S1 strictly below 1? label 1

Is fold change of COc1c2c(nc3ccccc13)OC(C(C)(O)CO)C2 (stereo unspecified) strictly below 1? label 1

Is fold change of CCC(C)(C)C(=O)OC1CC(C)C=C2C=CC(C)C(CC[C@@H]3CC(O)CC(=O)O3)[C@H]21 (stereo partly specified) strictly below 1? label 1

Is fold change of COc1cc(N)c(Cl)cc1C(=O)OCCN1CCCCC1 strictly below 1? label 0

Is fold change of O=C1C(Cc2ccc(O)cc2)N2C(=O)CCN(C(=O)NCc3ccccc3)[C@H]2CN1Cc1cccc2ccccc12 (stereo partly specified) strictly below 1? label 1

Is fold change of CCCC(=O)Nc1nc2c(ncn2C2O[C@H]3COP(=O)(O)O[C@@H]3[C@@H]2OC(=O)CCC)c(=O)[nH]1 (stereo partly specified) strictly below 1? label 1

Is fold change of COC1C=CO[C@@]2(C)Oc3c(C)c(O)c4c(O)c(c5c(nc6cc(C)ccn65)c4c3C2=O)NC(=O)C(C)=CC=CC(C)C(O)C(C)C(O)C(C)C(OC(C)=O)C1C (stereo partly specified) strictly below 1? label 0

Is fold change of NC1(C(=O)O)CCCCC1 strictly below 1? label 0

Is fold change of Cc1ccc(Cn2nccc2NC(=O)Cn2cc(-c3ccc(F)cc3)cn2)o1 strictly below 1? label 1

Is fold change of NC(=O)N1CCC(CC(=O)N2CCC(C3c4ncc(Br)cc4CCc4cc(Cl)cc(Br)c43)CC2)CC1 (stereo unspecified) strictly below 1? label 1

Is fold change of O=C(NCCc1nc2ccc(F)cc2[nH]1)c1cnccn1 strictly below 1? label 0

Is fold change of CC1C(NC(=O)C(=NOC(C)(C)C(=O)O)c2csc(N)n2)C(=O)N1S(=O)(=O)O (stereo unspecified) strictly below 1? label 1

Is fold change of CC(C)CC(NC(=O)C(CCc1ccccc1)NC(=O)CN1CCOCC1)C(=O)NC(Cc1ccccc1)C(=O)NC(CC(C)C)C(=O)[C@@]1(C)CO1 (stereo partly specified) strictly below 1? label 0

Is fold change of O=C(O)c1cc(N(Cc2ccccc2O)Cc2cc(O)ccc2O)ccc1O strictly below 1? label 0

Is fold change of Cc1csc(CNc2nccc(-c3cnn(-c4ccccc4)c3)n2)n1 strictly below 1? label 0

Is fold change of Nc1cc(N2CCCCC2)nc(N)[n+]1OS(=O)(=O)[O-] strictly below 1? label 0

Is fold change of CN(C)C1C(=O)C(C(=O)NCN2CCCC2)=C(O)[C@@]2(O)C(=O)C3=C(O)c4c(O)cccc4[C@@](C)(O)C3CC12 (stereo partly specified) strictly below 1? label 0

Is fold change of Cc1nsc(NC(=O)NCc2ccccc2-n2ccnc2C)n1 strictly below 1? label 0

Is fold change of O=C(O)CCCN1CCC(OC(c2ccc(Cl)cc2)c2ccccn2)CC1 (stereo unspecified) strictly below 1? label 0

Is fold change of NCCNS(=O)(=O)c1cccc2cnccc12 strictly below 1? label 0

Is fold change of COc1cc(F)c(C(C)C)cc1-c1ccc(C(F)(F)F)cc1CN1C(=O)OC(c2cc(C(F)(F)F)cc(C(F)(F)F)c2)C1C (stereo unspecified) strictly below 1? label 1

Is fold change of Cc1onc(-c2c(Cl)cccc2Cl)c1C(=O)NC1C(=O)N2C1SC(C)(C)C2C(=O)O (stereo unspecified) strictly below 1? label 1

Is fold change of CC1C(=O)N(C)C(=O)c2nc[nH]c21 (stereo unspecified) strictly below 1? label 0

Is fold change of Cc1cccc(C2CN(C)CCc3c2cc(O)c(O)c3Cl)c1 (stereo unspecified) strictly below 1? label 0

Is fold change of C=CC1CN2CCC1C[C@@H]2[C@H](O)c1ccnc2ccc(OC)cc12 (stereo partly specified) strictly below 1? label 0

Is fold change of CCC(=O)OCC(=O)[C@@]1(OC(=O)CC)[C@@H](C)C[C@H]2[C@@H]3CCC4=CC(=O)C=C[C@]4(C)C3(F)[C@@H](O)C[C@@]21C (stereo partly specified) strictly below 1? label 0

Is fold change of NCCC1CCCC(CCN)N1 (stereo unspecified) strictly below 1? label 0

Is fold change of CCOc1nc2cccc(C(=O)OCc3oc(=O)oc3C)c2n1Cc1ccc(-c2ccccc2-c2noc(=O)[nH]2)cc1 strictly below 1? label 1

Is fold change of N=C(N)c1ccc(OCCCCCOc2ccc(C(=N)N)cc2)cc1 (tested in a mixture with another compound) strictly below 1? label 1

Is fold change of COc1ccc2c3c1OC1CC(O)C=C[C@@]31CCN(C)C2 (stereo partly specified) strictly below 1? label 0

Is fold change of O[Si](CCCN1CCCCC1)(c1ccc(F)cc1)C1CCCCC1 (stereo unspecified) strictly below 1? label 0

Is fold change of O=C(O)CCCNC(=O)NC1CCCCC1 strictly below 1? label 1
